- TEST_DETAILS: Aqueous solubility by nephelometry
- Assay type: physicochemical
- CONDITION_CONTEXT: 0.01 M HCl (approx. pH 2.0), concentration range
OBSERVATION_TYPE: Sol2.0

CCOC(=O)C(C)(C)NC(=O)Nc1ccc(F)c(C(F)(F)F)c1 [compound 13]; 3.1-6.3/3.1-6.3 μg/mL
CC(C)(CC(=O)Nc1ccc(F)c(C(F)(F)F)c1)C(=O)O [compound 5]; 25-50/25-50 μg/mL
CC(C)(NC(=O)Cc1ccc(F)c(C(F)(F)F)c1)C(=O)O [compound 6]; 50 to 100 µg/mL
CC(C)(C(=O)O)n1c(=O)[nH]c2cc(C(F)(F)F)c(F)cc21 [compound 10]; 50 to 100 µg/mL
CC(C)(C(=O)O)N1Cc2cc(F)c(C(F)(F)F)cc2NC1=O [compound 11]; 50 to 100 µg/mL

Query (compound): O=C(Nc1ccc(F)c(C(F)(F)F)c1)NC1(C(=O)O)CCC1 [compound 9] ; field requested: Sol2.0 50 to 100 µg/mL

Query (compound): O=C(O)CNC(=O)Nc1ccc(F)c(C(F)(F)F)c1 [compound 7] ; field requested: Sol2.0 >100/>100 μg/mL

Query (compound): CC(C)(NC(=O)Nc1ccc(F)c(C(F)(F)F)c1)C(=O)O [compound 2] ; field requested: Sol2.0 25 to 50 µg/mL

Query (compound): CC(C)(C(=O)O)N1CCCN(c2ccc(F)c(C(F)(F)F)c2)C1=O [compound 4] ; field requested: Sol2.0 >100/>100 μg/mL

Query (compound): O=C(Nc1ccc(F)c(C(F)(F)F)c1)NC1(C(=O)O)CC1 [compound 8] ; field requested: Sol2.0 >100/>100 μg/mL

Query (compound): CC(C)(NC(=O)Nc1ccc(F)c(C(F)(F)F)c1)C(N)=O [compound 12] ; field requested: Sol2.0 50-100/50-100 μg/mL

----------
- TEST_DETAILS: Aqueous solubility by nephelometry
- Type: physicochemical
- CONDITION_CONTEXT: pH 6.5 phosphate buffer, concentration range
OBSERVATION_TYPE: Sol6.5

O=C(O)CNC(=O)Nc1ccc(F)c(C(F)(F)F)c1; >100/>100 μg/mL
O=C(Nc1ccc(F)c(C(F)(F)F)c1)NC1(C(=O)O)CC1; >100/>100 μg/mL
CC(C)(C(=O)O)N1CCCN(c2ccc(F)c(C(F)(F)F)c2)C1=O; >100/>100 μg/mL
CC(C)(CC(=O)Nc1ccc(F)c(C(F)(F)F)c1)C(=O)O; 25-50/25-50 μg/mL
CCOC(=O)C(C)(C)NC(=O)Nc1ccc(F)c(C(F)(F)F)c1; 3.1-6.3/3.1-6.3 μg/mL

Query (compound): CC(C)(NC(=O)Nc1ccc(F)c(C(F)(F)F)c1)C(N)=O ; field requested: Sol6.5 50-100/50-100 μg/mL

Query (compound): CC(C)(NC(=O)Cc1ccc(F)c(C(F)(F)F)c1)C(=O)O ; field requested: Sol6.5 25 to 50 µg/mL

Query (compound): CC(C)(NC(=O)Nc1ccccc1)C(=O)O ; field requested: Sol6.5 50 to 100 µg/mL

These data points were gathered from paper PMC6301076.
